# Tested on: 186277-243-T-J2-PDC complex spheroids, viability
# Measurement Notes: Anticancer human tumor 186277-243-T-J2-PDC patient-derived colon adenocarcinoma cell line growth inhibition [RAS]
# Measurement Setup: curve of first compound; second compound 0.1 µM
pIC50: −log10 of the molar value.
Experimental Readout: pIC50

Examples with their reported pIC50 follow.
INSERT INTO assay_data (compound, val) VALUES
  ('CCc1c2c(nc3ccc(O)cc13)-c1cc3c(c(=O)n1C2)COC(=O)[C@]3(O)CC + C#Cc1c(F)ccc2cc(O)cc(-c3ncc4c(N5CC6CCC(C5)N6)nc(OCC56CCCN5CC(F)C6)nc4c3F)c12', '> 9.02'),
  ('Cc1nc(N2CCC3(CC2)COC(C)C3N)c(CO)nc1Sc1ccnc(N)c1Cl (stereo not drawn) + C=CC(=O)N1CCN(c2nc(OCC3CCCN3C)nc3c(F)c(-c4nc(N)cc(C)c4C(F)(F)F)c(Cl)cc23)C(C)C1', '< 5.00');

Could you now look at the following compound, please?
Entry under review: CCN1CCN(Cc2ccc(Nc3ncc(F)c(-c4cc(F)c5nc(C)n(C(C)C)c5c4)n3)nc2)CC1 + C=CC(=O)N1CCN(c2nc(OCC3CCCN3C)nc3c(F)c(-c4nc(N)cc(C)c4C(F)(F)F)c(Cl)cc23)C(C)C1 . Reported pIC50?
< 6.00

====

# System: 186277-243-T-J2-PDC complex spheroids, viability
# Measurement Notes: Anticancer human tumor 186277-243-T-J2-PDC cell line growth inhibition [RAS];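 also: spheroids exposed to compounds for 7 days before viability read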
# Measurement Setup: curve of first compound; second compound 0.0949 µM
Experimental Readout: IC50

Solved entries (count: 3):
INSERT INTO measurements (compound, experimental_readout, val) VALUES
  ('CC(=O)OC12COC1CC(O)C1(C)C(=O)C(O)C3=C(C)C(OC(=O)C(O)C(NC(=O)OC(C)(C)C)c4ccccc4)CC(O)(C(OC(=O)c4ccccc4)C21)C3(C)C (centres undefined) + CCn1c(-c2cccnc2C(C)OC)c2c3cc(ccc31)N1CCOC(CC(NC(=O)C(C(C)C)N(C)C(=O)C3(F)CCN(C(=O)C#CC(C)(C)N(C)C)CC3)C(=O)N3CCCC(N3)C(=O)OCC(C)(C)C2)C1', 'IC50', '< 31.6 nM'),
  ('O=C(c1ccc(F)c(F)c1Nc1ccc(I)cc1F)N1CC(O)([C@@H]2CCCCN2)C1 + CCn1c(-c2cc(N3CCN(C)CC3)cnc2C(C)OC)c2c3cc(ccc31)-c1csc(n1)CC(NC(=O)C1CC1C)C(=O)N1CCCC(N1)C(=O)OCC(C)(C)C2', 'IC50', '< 3.16 nM'),
  ('CC1(C)CCC(Nc2ncc(C(F)(F)F)c(-c3c[nH]c4c(P(C)(C)=O)c(C#N)ccc34)n2)CN1 (centres undefined) + CCn1c(-c2cc(N3CCN(C)CC3)cnc2C(C)OC)c2c3cc(ccc31)-c1csc(n1)CC(NC(=O)C1CC1C)C(=O)N1CCCC(N1)C(=O)OCC(C)(C)C2', 'IC50', '< 0.949 nM');

Note: attention shifts to another entry.
Requested read-out: IC50. Entry: Cc1nc(N2CCC3(CC2)COC(C)C3N)c(CO)nc1Sc1ccnc(N)c1Cl (centres undefined) + CCn1c(-c2cccnc2C(C)OC)c2c3cc(ccc31)N1CCOC(CC(NC(=O)C(C(C)C)N(C)C(=O)C3(F)CCN(C(=O)C#CC(C)(C)N(C)C)CC3)C(=O)N3CCCC(N3)C(=O)OCC(C)(C)C2)C1
> 10000 nM
